assay: Oral bioavailability in Sprague-Dawley rat at 10 mg/kg; format: ADME, organism-based; details: in vivo
Measured bioavailability of individual entries
State the answer as a number, implicitly in %.

COC(=O)N(CC(=O)O)Cc1cccc(OCc2coc(-c3ccc(Cl)cc3)n2)c1 : 75

# context switch: different molecule, same bioavailability
// COC(=O)N(CC(=O)O)Cc1cccc(OCc2csc(-c3ccc(C(F)(F)F)cc3)n2)c1 : bioavailability value = 75

---

Measured Emax of individual entries
biological target: Peroxisome proliferator-activated receptor gamma (Homo sapiens) (UniProt P37231); test: Agonist activity against human Gal4-fussed PPARgamma by luciferase reporter gene assay relative to rosiglitazone
Sequence (P37231 whole entry, the tested form may be a part): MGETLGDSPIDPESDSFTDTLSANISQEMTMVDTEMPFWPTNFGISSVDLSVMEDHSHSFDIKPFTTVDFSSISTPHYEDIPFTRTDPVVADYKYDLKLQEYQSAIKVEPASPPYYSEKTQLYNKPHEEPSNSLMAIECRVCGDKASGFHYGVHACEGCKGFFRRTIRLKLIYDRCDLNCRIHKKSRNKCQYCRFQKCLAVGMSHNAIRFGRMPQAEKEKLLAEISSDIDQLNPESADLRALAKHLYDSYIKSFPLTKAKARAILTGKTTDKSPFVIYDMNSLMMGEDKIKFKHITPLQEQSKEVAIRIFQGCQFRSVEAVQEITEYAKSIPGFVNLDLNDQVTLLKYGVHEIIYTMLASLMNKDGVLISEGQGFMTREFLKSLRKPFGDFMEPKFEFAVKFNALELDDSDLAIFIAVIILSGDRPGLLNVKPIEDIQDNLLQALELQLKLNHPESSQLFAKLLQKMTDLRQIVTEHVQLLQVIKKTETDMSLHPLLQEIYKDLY
State the answer as a number, implicitly in %.

Example entries and their recorded answers appear below.
COc1cccc(OC(=O)N(CC(=O)O)[C@@H](C)c2cccc(OCc3coc(-c4ccc(Cl)cc4)n3)c2)c1 : 95
COC(=O)N(CC(=O)O)Cc1cccc(OCc2coc(-c3ccc(C(F)(F)F)cc3)n2)c1 : 34
Cc1cccc(OC(=O)N(CC(=O)O)[C@@H](C)c2cccc(OCc3coc(-c4ccc(Cl)cc4)n3)c2)c1 : 83
COC(=O)N(CC(=O)O)Cc1cccc(OCc2nc(-c3ccc(Cl)cc3)oc2C)c1 : 82
COC(=O)N(CC(=O)O)Cc1cccc(OCc2csc(-c3ccccc3Cl)n2)c1 : 55

// Cc1ccc(F)c(OC(=O)N(CC(=O)O)[C@@H](C)c2cccc(OCc3coc(-c4ccc(Cl)cc4)n3)c2)c1 : Emax value = 58

// COc1cc(OC(=O)N(CC(=O)O)[C@@H](C)c2cccc(OCc3coc(-c4ccc(Cl)cc4)n3)c2)ccc1F : Emax value = 74

// COC(=O)N(CC(=O)O)Cc1cccc(OCc2coc(-c3ccc(Cl)cc3)n2)c1 : Emax value = 46

// COC(=O)N(CC(=O)O)[C@@H](C)c1cccc(OCc2coc(-c3ccc(Cl)cc3)n2)c1 : Emax value = 189

---

Measured clearance of individual entries
assay: Clearance in Sprague-Dawley rat at 5 mg/kg, iv and 10 mg/kg, po; format: ADME, organism-based; conditions: in vivo
State the answer as a number, implicitly in mL/min/kg.

Example entries and their recorded answers appear below.
COC(=O)N(CC(=O)O)Cc1cccc(OCc2coc(-c3ccc(Cl)cc3)n2)c1 : 0.7
COC(=O)N(CC(=O)O)Cc1cccc(OCc2csc(-c3ccc(C(F)(F)F)cc3)n2)c1 : 0.5

# context switch: different compound, same clearance
// COC(=O)N(CC(=O)O)Cc1cccc(OCc2nc(-c3ccc(Cl)cc3)oc2C)c1 : clearance value = 4.3

---

molecular target: Peroxisome proliferator-activated receptor alpha (Homo sapiens); assay: Agonist activity against human Gal4-fussed PPARalpha in HEK293 cells by luciferase reporter gene assay; format: functional, cell-based
Sequence (Q07869 whole entry, the tested form may be a part): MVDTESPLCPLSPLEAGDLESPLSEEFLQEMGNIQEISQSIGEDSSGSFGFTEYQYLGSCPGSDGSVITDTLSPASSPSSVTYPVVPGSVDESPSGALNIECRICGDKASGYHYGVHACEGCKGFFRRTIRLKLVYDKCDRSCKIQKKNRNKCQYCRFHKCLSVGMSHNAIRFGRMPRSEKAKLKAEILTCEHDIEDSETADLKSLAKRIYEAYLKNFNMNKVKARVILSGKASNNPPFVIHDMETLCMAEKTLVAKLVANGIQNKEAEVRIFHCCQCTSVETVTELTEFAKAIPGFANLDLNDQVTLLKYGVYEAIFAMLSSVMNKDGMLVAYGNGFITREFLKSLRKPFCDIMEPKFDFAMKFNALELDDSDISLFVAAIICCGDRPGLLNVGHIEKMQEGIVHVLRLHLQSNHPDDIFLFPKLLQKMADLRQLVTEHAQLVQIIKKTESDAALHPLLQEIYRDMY
QUANTITY KIND: pEC50
Note on units: pEC50 is unitless, being -log10 of a concentration expressed in mol/L.

COC(=O)N(CC(=O)O)Cc1cccc(OCc2coc(-c3ccc(C(F)(F)F)cc3)n2)c1 : 7.17

// COC(=O)N(CC(=O)O)Cc1cccc(OCc2csc(-c3ccccc3)n2)c1 : pEC50 value = 6.52

// COC(=O)N(CC(=O)O)Cc1cccc(OCc2coc(-c3ccc(F)cc3F)n2)c1 : pEC50 value = 5.96

// COC(=O)N(CC(=O)O)[C@@H](C)c1cccc(OCc2coc(-c3ccc(C)cc3)n2)c1 : pEC50 value = 7.06

// Cc1cccc(OC(=O)N(CC(=O)O)[C@@H](C)c2cccc(OCc3coc(-c4ccc(Cl)cc4)n3)c2)c1 : pEC50 value = 7.66

// COC(=O)N(CC(=O)O)[C@@H](C)c1cccc(OCc2coc(-c3ccc(Cl)cc3)n2)c1 : pEC50 value = 7.14
